Reported IC50 values for a set of compounds
- studySystem: Histone deacetylase 2 (Homo sapiens)
- Sequence (Q92769 whole entry): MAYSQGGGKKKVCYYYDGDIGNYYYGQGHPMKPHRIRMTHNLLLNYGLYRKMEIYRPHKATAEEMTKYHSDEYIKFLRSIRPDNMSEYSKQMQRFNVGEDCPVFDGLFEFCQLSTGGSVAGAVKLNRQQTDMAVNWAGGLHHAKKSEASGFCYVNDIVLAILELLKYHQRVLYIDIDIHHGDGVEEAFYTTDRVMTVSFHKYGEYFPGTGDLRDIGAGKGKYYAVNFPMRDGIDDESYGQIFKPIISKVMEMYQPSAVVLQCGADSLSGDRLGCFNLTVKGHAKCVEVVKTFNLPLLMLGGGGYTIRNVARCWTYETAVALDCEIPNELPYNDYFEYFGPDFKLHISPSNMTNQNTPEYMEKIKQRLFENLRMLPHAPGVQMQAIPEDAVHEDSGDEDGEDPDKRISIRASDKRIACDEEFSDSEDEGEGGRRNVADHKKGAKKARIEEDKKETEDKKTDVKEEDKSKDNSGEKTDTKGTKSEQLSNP
- assayMethodText: Inhibition of recombinant human HDAC2 expressed in baculovirus infected Hi-5 insect cells using Ac-Lys-Tyr-Lys (epsilon-acetyl)-AMC as substrate incubated for 3 to 24 hrs by fluorescence based plate reader analysis
endpointLabel: IC50 (nM)

>>> reportedresult("COc1cc([C@@H]2c3cc4c(cc3C[C@H]3COC(=O)[C@@H]32)OCO4)cc(OC)c1OC(=O)CC(=O)Nc1ccc(C(=O)Nc2ccccc2N)cc1")
750
>>> reportedresult("COc1cc([C@@H]2c3cc4c(cc3C[C@H]3COC(=O)[C@@H]32)OCO4)cc(OC)c1OC(=O)CC(=O)NCc1ccc(C(=O)Nc2ccccc2N)cc1")
1730
